Values compiled from ChEMBL document CHEMBL1133889.

Target sequence: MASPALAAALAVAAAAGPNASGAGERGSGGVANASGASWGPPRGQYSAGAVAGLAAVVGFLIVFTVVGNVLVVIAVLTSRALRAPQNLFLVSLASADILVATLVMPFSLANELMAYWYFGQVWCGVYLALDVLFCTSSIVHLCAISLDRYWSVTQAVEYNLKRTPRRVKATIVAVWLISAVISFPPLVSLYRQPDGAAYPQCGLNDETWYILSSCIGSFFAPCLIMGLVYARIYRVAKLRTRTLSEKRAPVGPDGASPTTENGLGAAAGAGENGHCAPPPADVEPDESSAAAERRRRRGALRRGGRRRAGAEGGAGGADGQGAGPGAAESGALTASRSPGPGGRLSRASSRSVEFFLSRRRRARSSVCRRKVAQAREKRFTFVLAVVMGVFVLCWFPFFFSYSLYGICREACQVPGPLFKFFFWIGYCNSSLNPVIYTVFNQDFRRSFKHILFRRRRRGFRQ
pKi: −log10 of the molar value.
result.type: pKi

Q. I would be grateful if you could share the reported pKi for "CN(CC[C@@H](Oc1ccc(C(F)(F)F)cc1)c1ccccc1)CC(=O)[O-].[Li+]" .
A. < 5.00

###

Biological target: 5-hydroxytryptamine receptor 1A (Rattus norvegicus, UniProt P19327)
Sequence (P19327 whole entry): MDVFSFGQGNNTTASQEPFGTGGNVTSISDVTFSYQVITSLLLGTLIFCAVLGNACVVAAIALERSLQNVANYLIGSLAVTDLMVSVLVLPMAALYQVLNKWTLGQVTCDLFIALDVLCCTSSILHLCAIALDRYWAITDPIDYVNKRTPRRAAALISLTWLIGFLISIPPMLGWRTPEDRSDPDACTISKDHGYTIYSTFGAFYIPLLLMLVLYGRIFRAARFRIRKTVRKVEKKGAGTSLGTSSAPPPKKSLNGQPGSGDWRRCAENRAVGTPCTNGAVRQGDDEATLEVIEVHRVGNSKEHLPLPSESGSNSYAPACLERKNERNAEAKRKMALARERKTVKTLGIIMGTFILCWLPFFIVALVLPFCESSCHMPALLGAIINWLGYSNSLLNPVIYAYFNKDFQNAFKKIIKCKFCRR
result.type: Ki

Q. # returns recorded Ki (system: 5-hydroxytryptamine receptor 1A (Rattus norvegicus, UniProt P19327)) for "CN(CC[C@@H](Oc1ccc(C(F)(F)F)cc1)c1ccccc1)CC(=O)[O-].[Li+]"
A. > 10 µM

###

biological target: UniProt P07550
Sequence (P07550 whole entry): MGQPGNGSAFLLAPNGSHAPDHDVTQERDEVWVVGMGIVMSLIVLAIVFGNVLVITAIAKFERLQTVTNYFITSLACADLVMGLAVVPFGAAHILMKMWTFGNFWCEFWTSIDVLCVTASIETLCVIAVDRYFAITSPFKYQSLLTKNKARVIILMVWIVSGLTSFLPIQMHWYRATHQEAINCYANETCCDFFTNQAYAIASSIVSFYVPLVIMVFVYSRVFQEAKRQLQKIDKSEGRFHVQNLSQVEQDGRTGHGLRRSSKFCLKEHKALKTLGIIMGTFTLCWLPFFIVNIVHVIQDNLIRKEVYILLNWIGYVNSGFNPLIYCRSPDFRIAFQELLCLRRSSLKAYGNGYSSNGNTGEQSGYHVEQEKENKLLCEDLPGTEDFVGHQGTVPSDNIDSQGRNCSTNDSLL
result.type: Ki

Q. Give the reported Ki for "CN(CC[C@@H](Oc1ccc(C(F)(F)F)cc1)c1ccccc1)CC(=O)[O-].[Li+]" (system: UniProt P07550).
A. > 10 µM

###

target: 5-hydroxytryptamine receptor 6 (Rattus norvegicus)
Sequence (P31388 whole entry): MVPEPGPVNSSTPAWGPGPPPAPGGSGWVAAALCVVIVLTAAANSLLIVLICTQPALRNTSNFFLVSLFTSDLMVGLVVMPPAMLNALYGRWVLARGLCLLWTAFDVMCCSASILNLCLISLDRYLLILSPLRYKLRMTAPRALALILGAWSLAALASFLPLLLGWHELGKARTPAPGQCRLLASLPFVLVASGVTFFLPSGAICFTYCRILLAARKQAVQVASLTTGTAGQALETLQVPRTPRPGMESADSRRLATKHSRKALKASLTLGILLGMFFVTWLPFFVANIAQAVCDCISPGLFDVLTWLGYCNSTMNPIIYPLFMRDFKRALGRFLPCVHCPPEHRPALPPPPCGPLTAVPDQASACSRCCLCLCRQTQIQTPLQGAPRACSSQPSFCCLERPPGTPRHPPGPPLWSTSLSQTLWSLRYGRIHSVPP
result.type: Ki

Q. Consider the compound "CN(CC[C@@H](Oc1ccc(C(F)(F)F)cc1)c1ccccc1)CC(=O)[O-].[Li+]" and give its measured Ki.
A. > 10 µM

###

Target protein (sequence): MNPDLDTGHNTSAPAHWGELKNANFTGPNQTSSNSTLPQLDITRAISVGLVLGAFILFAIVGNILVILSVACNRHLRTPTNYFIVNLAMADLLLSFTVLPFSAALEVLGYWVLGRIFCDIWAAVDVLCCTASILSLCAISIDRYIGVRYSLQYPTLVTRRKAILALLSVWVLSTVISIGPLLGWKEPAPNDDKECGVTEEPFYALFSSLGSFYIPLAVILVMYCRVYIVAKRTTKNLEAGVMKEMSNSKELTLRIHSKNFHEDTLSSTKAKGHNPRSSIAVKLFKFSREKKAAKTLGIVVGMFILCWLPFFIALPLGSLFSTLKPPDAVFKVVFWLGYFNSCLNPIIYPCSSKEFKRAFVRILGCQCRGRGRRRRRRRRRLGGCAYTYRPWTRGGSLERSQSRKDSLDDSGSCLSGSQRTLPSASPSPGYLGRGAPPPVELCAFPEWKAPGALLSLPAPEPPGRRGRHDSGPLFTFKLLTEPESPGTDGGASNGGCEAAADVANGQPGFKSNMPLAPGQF
pKi: −log10 of the molar value.
result.type: pKi

Q. Which pKi value belongs to "CN(CC[C@@H](Oc1ccc(C(F)(F)F)cc1)c1ccccc1)CC(=O)[O-].[Li+]" ?
A. < 5.00
